Measured values drawn from patent US12709622B2 for this set.

- procedure.text: Alizarin Red S (ARS) displacement assay, binding to fructose
- condition.label: ARS displacement, 0.1M phosphate buffer, pH 7.4, 25° C.
test.readout: Kd (mM)

> print(dat)
                           structure.string  test.readout  recorded.result
1  NC(=O)[C@H](CNC(=O)c1cc(B(O)O)ccc1[N+](=O)[O-])NC(=O)c1cc(B(O)O)ccc1[N+](=O)[O-]            Kd               11
2  O=C(O)CN(CCCCNC(=O)c1cc(B(O)O)cc([N+](=O)[O-])c1)C(=O)c1cc(B(O)O)cc([N+](=O)[O-])c1            Kd             11.5
3  NC(=O)[C@H](CNC(=O)c1cc2c(c(C(F)(F)F)c1)COB2O)NC(=O)c1cc(B(O)O)cc([N+](=O)[O-])c1            Kd              4.6

----------
- procedure.text: Alizarin Red S (ARS) displacement assay, binding to fructose
- condition.label: ARS displacement, 0.1M phosphate buffer, pH 7.4, 25° C.
Cut-off 6 mM on Kd: below means yes (1), at or above means no (0).

> print(dat)
                                   molecule    class
1  NC(=O)[C@H](CNC(=O)c1ccc2c(c1)B(O)OC2)NC(=O)c1cc(B(O)O)cc([N+](=O)[O-])c1 [Example 4]  yes (1)
2  CS(=O)(=O)c1ccc(B(O)O)cc1C(=O)N[C@@H]1C[C@H](C(N)=O)N(C(=O)c2cc(B(O)O)ccc2S(C)(=O)=O)C1 [Example 1]  yes (1)
3  NC(=O)[C@H](CNC(=O)c1ccc2c(c1)B(O)OC2)NC(=O)c1cc(B(O)O)ccc1[N+](=O)[O-] [Example 7]  yes (1)
4  O=C(O)CN(Cc1cccc(CNC(=O)c2cc(B(O)O)cc([N+](=O)[O-])c2)c1)C(=O)c1cc(B(O)O)cc([N+](=O)[O-])c1 [Example 13]   no (0)
5  O=C(O)CN(CCCNC(=O)c1ccc(F)c(B(O)O)c1)C(=O)c1ccc(F)c(B(O)O)c1 [Example 15]  yes (1)
6  O=C(O)CN(CCCNC(=O)c1cc(B(O)O)cc([N+](=O)[O-])c1)C(=O)c1cc(B(O)O)cc([N+](=O)[O-])c1 [Example 9]   no (0)

----------
- procedure.text: Alizarin Red S (ARS) displacement assay, binding to lactate
- condition.label: ARS displacement, 0.1M phosphate buffer, pH 7.4, 25° C.
Each entry below carries its recorded Kd.
test.readout: Kd (mM)

> print(dat)
                                   compound  readout.units  recorded.result
1  NC(=O)[C@H](CNC(=O)c1ccc2c(c1)B(O)OC2)NC(=O)c1cc(B(O)O)ccc1[N+](=O)[O-] [Example 7]             mM             39.5
2  O=C(O)CNC(=O)[C@@H]1C[C@H](NC(=O)c2ccc3c(c2)B(O)OC3)CN1C(=O)c1ccc2c(c1)B(O)OC2 [Example 2]             mM               58
3  O=C(O)CN(CCCNC(=O)c1ccc(B(O)O)c(F)c1)C(=O)c1ccc(B(O)O)c(F)c1 [Example 19]             mM               31
4  O=C(O)CN(CCCNC(=O)c1ccc(F)c(B(O)O)c1)C(=O)c1ccc(F)c(B(O)O)c1 [Example 15]             mM             51.6
5  O=C(O)CN(Cc1cccc(CNC(=O)c2ccc(F)c(B(O)O)c2)c1)C(=O)c1ccc(F)c(B(O)O)c1 [Example 17]             mM             53.5
6  O=C(O)CN(C(=O)c1ccc(F)c(B(O)O)c1)[C@H]1CCCC[C@H]1NC(=O)c1ccc(F)c(B(O)O)c1 [Example 18]             mM             67.5
7  O=C(O)CNC(=O)[C@@H]1C[C@H](NC(=O)c2ccc3c(c2)B(O)OC3)CN1C(=O)c1cc(B(O)O)ccc1[N+](=O)[O-] [Example 3]             mM               48
